System: NOMO1
run_description: cell viability relative to DMSO control; higher = less cytotoxic
test_settings: HPLM + 10% dialyzed FBS; 48 h; 5.12 µM
Rule: measured cell viability below 80% gets yes; anything equal to or greater than 80% gets no.

Use these answered entries as a reference point.
>  <mol_smiles>
CCC1=C[C@@H]2CN(C1)Cc1c([nH]c3ccccc13)[C@@](C(=O)OC)(c1cc3c(cc1OC)N(C)[C@H]1[C@@](O)(C(=O)OC)[C@H](OC(C)=O)[C@]4(CC)C=CCN5CC[C@]31[C@@H]54)C2

>  <measured_target>
NOMO1

>  <class>
yes

$$$$
>  <mol_smiles>
CC(C)C[C@H](CN)CC(=O)O

>  <measured_target>
NOMO1

>  <class>
no

$$$$

Task: Please state whether cell viability is below 80% for ClC1=CC=C(CCCOC/2=N/NC(=O)C(=C2NCC3=CN=CC=C3)/Br)C=C1
Output: yes

Task: Below 80% on cell viability? Entry CN1C(=O)\C(=C/C(=C1/NC2=C(F)C=C(I)C=C2)C(=O)NOCCO)C
Output: yes

* * *

Test system: P12-Ichikawa
run_description: cell viability relative to DMSO control; higher = less cytotoxic
test_settings: RPMI 5 mM glucose + 10% dialyzed FBS; 48 h; 0.19 µM
observable: cell viability (%)
Give bare numbers, in %.

>  <compound>
O=C(NC1CCNCC1)c1n[nH]cc1NC(=O)c1c(Cl)cccc1Cl

>  <cell viability [%]>
112

$$$$

Would you mind listing cell viability for each of the following compounds?
1. O=C(O)c1ccccc1C(=O)Nc1ccc(-c2ccccc2)cc1
2. CC[C@]1(O)C[C@H]2CN(CCC3=C([NH]C4=C3C=CC=C4)[C@@](C2)(C(=O)OC)C5=CC6=C(C=C5OC)N(C=O)[C@H]7[C@](O)([C@H](OC(C)=O)[C@]8(CC)\C=C/C[N@@]9CC[C@]67[C@H]89)C(=O)OC)C1
3. Clc1ccc(C2(c3ccc(-c4cn[nH]c4)cc3)CCNCC2)cc1
4. Nc1nc(-c2nn(Cc3ccccc3F)c3ncccc23)nc(N)c1N1CCOCC1
5. OC[C@H]1O[C@@H](Oc2ccc(O)cc2)[C@H](O)[C@@H](O)[C@@H]1O
6. Cc1c[nH]c(/C=C2\C(=O)Nc3ccccc32)c1CCC(=O)O
7. COC(=O)N1CCN(Cc2cccc(NC(=O)Nc3ccc(C)nc3)c2F)CC1

Output:
[123, 34.6, 93.5, 92.1, 87.8, 106, 84.5]

* * *

System: P12-Ichikawa
run_description: cell viability relative to DMSO control; higher = less cytotoxic
test_settings: HPLM + 10% dialyzed FBS; 48 h; 5.12 µM
observable: cell viability (%)
One number for each entry, in %.

Please review the entries below; each comes with its answer.
>  <molecule>
Cc1c[nH]c(/C=C2\C(=O)Nc3ccccc32)c1CCC(=O)O

>  <measured_target>
P12-Ichikawa

>  <cell viability (%)>
79.2

$$$$
>  <molecule>
O=C(Nc1ccc(OC(F)(F)F)cc1)c1sccc1NCc1ccnc2ccccc12

>  <measured_target>
P12-Ichikawa

>  <cell viability (%)>
10.7

$$$$

Parameters: items (list). Returns: cell viability for each item.
1. O=C1CSC(=O)N1C(CCc1ccncc1)COc1ccc(-c2cccc([N+](=O)[O-])c2)cc1 (configuration not stated)
2. Cc1cc(O)c2c3c4c(cc(O)c13)C(C)(C)C(=O)c1c(O)cc(O)c(c1-4)C2=O
3. O=C(Cc1cccc(OC(F)(F)F)c1)Nc1ccc(CCCCc2nnc(NC(=O)Cc3ccccn3)s2)nn1
4. COc1cc2c(N3CCN(C(=O)Nc4ccc(OC(C)C)cc4)CC3)ncnc2cc1OCCCN1CCCCC1
5. COc1cc2nccc(Oc3ccc(NC(=O)Nc4ccc(F)cc4F)c(F)c3)c2cc1OC
6. O=C1Nc2ccccc2/C1=C1\Nc2ccccc2C1=O
7. O=C(O)[C@H](Cc1c[nH]c2ccccc12)N1C(=O)c2ccccc2C1=O
8. CNC(=O)c1cccc(-c2ccc3c(N4CCOC[C@@H]4C)nc(N4CCOC[C@@H]4C)nc3n2)c1

Output:
95.7
106
103
86
85
94.9
103
65.6

Each molecule below has a reported value. Please supply its cell viability.
1. O=C1c2c(O)cccc2[C@H]([C@@H]2O[C@H](CO)[C@@H](O)[C@H](O)[C@H]2O)c2cc(CO)cc(O)c21
2. CC1SC/2=C(C(O)=O)/C(=O)C3=CC(=C(C=C3N12)N4CCN(CC4)C\C5=C(C)\OC(=O)O5)F (configuration not stated)
3. CC(C)(C)/[N+]([O-])=C/c1ccc([S+](=O)([O-])[O][Na])cc1[S+](=O)([O-])[O][Na]

Output:
1. 103
2. 113
3. 121

* * *

Tested on: P12-Ichikawa
run_description: cell viability relative to DMSO control; higher = less cytotoxic
test_settings: RPMI 5 mM glucose + 10% FBS; 48 h; 0.00234 µM
observable: cell viability (%)
One number for each entry, in %.

>  <molecule>
COc1cc(N2CCC(C(N)=O)CC2)ccc1Nc1nc(N)c(Cl)c(Nc2ccccc2[S+](=O)([O-])C(C)C)n1

>  <cell viability [%]>
102

$$$$

Batch: cell viability for all items listed.
1. Cc1cc2c(C(C)C)c(O)c(O)c(C=O)c2c(O)c1-c1c(C)cc2c(C(C)C)c(O)c(O)c(C=O)c2c1O
2. CC(C)(C)/[N+]([O-])=C/c1ccc([S+](=O)([O-])[O][Na])cc1[S+](=O)([O-])[O][Na]

Output:
[125, 96.5]

Provide reported cell viability for each item, in the same order as listed.
1. CCNC(=O)C[C@@H]1\N=C(C2=CC=C(Cl)C=C2)/C3=C(C=CC(=C3)OC)[N]4C(=NN=C14)C
2. FC(F)(F)c1ccc(Nc2nc3cc(Oc4ccnc(-c5ncc(C(F)(F)F)[nH]5)c4)ccc3[nH]2)cc1

Output:
111
119

* * *

Kindly supply the reported cell viability values for the records listed here.
Test system: P12-Ichikawa
run_description: cell viability relative to DMSO control; higher = less cytotoxic
test_settings: RPMI 5 mM glucose + 10% dialyzed FBS; 48 h; 0.19 µM
Numbers only, in %.

Below: 4 molecules and their reported cell viability.
>  <mol_smiles>
C#Cc1cccc(Nc2ncnc3cc(OCCOC)c(OCCO)cc23)c1

>  <cell viability / %>
108

$$$$
>  <mol_smiles>
C#CCN(C)[C@H](C)Cc1ccccc1

>  <cell viability / %>
88.3

$$$$
>  <mol_smiles>
C[C@H]([C@H](O)CCC(C)(C)O)[C@H]1CC[C@@]2(O)C/3=C/C(=O)[C@@H]4C[C@@H](O)[C@@H](O)C[C@]4(C)[C@H]3CC[C@]12C

>  <cell viability / %>
122

$$$$
>  <mol_smiles>
Cc1cc(Nc2ncc(Cl)c(Nc3ccccc3[S+](=O)([O-])C(C)C)n2)c(OC(C)C)cc1C1CCNCC1

>  <cell viability / %>
117

$$$$

Task: Consider the molecule COc1cc(N2CCC(C(N)=O)CC2)ccc1Nc1nc(N)c(Cl)c(Nc2ccccc2[S+](=O)([O-])C(C)C)n1 and give its measured cell viability.
Output: 97.9

* * *

Tested on: P12-Ichikawa
run_description: cell viability relative to DMSO control; higher = less cytotoxic
test_settings: RPMI 5 mM glucose + 10% dialyzed FBS; 48 h; 46.1 µM
So I've got a bunch of molecules here, and I need their cell viability values.
Answers are plain numbers, in %.

Worked cases, answers included:
>  <mol_smiles>
COc1cc2nccc(Oc3ccc(NC(=O)Nc4ccc(F)cc4F)c(F)c3)c2cc1OC

>  <cell viability / %>
22.2

$$$$
>  <mol_smiles>
O=C(NC1CCOCC1)c1ccc(-c2cc(-c3c[nH]nc3-c3ccccn3)ccn2)cc1

>  <cell viability / %>
89.8

$$$$
>  <mol_smiles>
COc1cc2ncnc(-n3nc(-c4ccccn4)nc3N)c2cc1OC

>  <cell viability / %>
0.35

$$$$
>  <mol_smiles>
C[N]1C=NC=C1[C@@](N)(C2=CC=C(Cl)C=C2)C3=CC=C4N(C)C(=O)\C=C(\C5=CC=CC(=C5)Cl)C4=C3

>  <cell viability / %>
39.3

$$$$

For every listed record, write down its cell viability.
1. O=C(Nc1ccc(OC(F)(F)F)cc1)c1sccc1NCc1ccnc2ccccc12
2. COC1=CC=C2Nc3cc(Cl)ccc3C(N=C3C=C(CN4CCCC4)C(=O)C(CN4CCCC4)=C3)=C2N1
3. O=[N+]([O-])c1cn2c(n1)OC[C@@H](OCc1ccc(OC(F)(F)F)cc1)C2
4. Cc1cc(Nc2ncc(Cl)c(Nc3ccccc3[S+](=O)([O-])C(C)C)n2)c(OC(C)C)cc1C1CCNCC1

Output:
[16.1, 93, 107, 10.5]

Batch request: cell viability per item, same order as input.
1. O=C1c2c(O)cccc2[C@H]([C@@H]2O[C@H](CO)[C@@H](O)[C@H](O)[C@H]2O)c2cc(CO)cc(O)c21
2. CC[C@]1(O)C[C@H]2CN(CCC3=C([NH]C4=C3C=CC=C4)[C@@](C2)(C(=O)OC)C5=CC6=C(C=C5OC)N(C=O)[C@H]7[C@](O)([C@H](OC(C)=O)[C@]8(CC)\C=C/C[N@@]9CC[C@]67[C@H]89)C(=O)OC)C1
3. O=C(O)[C@H](Cc1c[nH]c2ccccc12)N1C(=O)c2ccccc2C1=O

Output:
99
12.6
92.2

Provide reported cell viability for each item, in the same order as listed.
1. Cc1nc(Nc2ncc(C(=O)Nc3c(C)cccc3Cl)s2)cc(N2CCN(CCO)CC2)n1
2. C[C@@H](c1ncncc1F)[C@](O)(Cn1cncn1)c1ccc(F)cc1F
3. Cc1c(C(=O)Nc2ccc(N3C[C@@H](C)O[C@@H](C)C3)nc2)cccc1-c1ccc(OC(F)(F)F)cc1
4. Nc1ccccc1NC(=O)c1ccc(CNc2nccc(-c3cccnc3)n2)cc1
5. Fc1ccc(C(c2ccc(F)cc2)N2CCN(C/C=C/c3ccccc3)CC2)cc1

Output:
1. 35.3
2. 91.4
3. 6.12
4. 6.17
5. 95.2

I need cell viability for every entry listed below, if you could help.
1. OC[C@H]1O[C@@H](Oc2ccc(O)cc2)[C@H](O)[C@@H](O)[C@@H]1O
2. CN1C(=O)\C(=C/C(=C1/NC2=C(F)C=C(I)C=C2)C(=O)NOCCO)C

Output:
88.4
74.9

Each recorded value in this set is attributed to the supplement of paper PMC11451515.
